Below, each entry is listed with its recorded pIC50.
target: human HPK1 (Homo sapiens (Human)); assay: 33P isotope-labeled kinase activity assay (Method 1); assay type: biochemical; settings: HPK1 enzyme concentration 8.1 nM; ATP concentration 15 μM
Sequence (Q92918 whole entry): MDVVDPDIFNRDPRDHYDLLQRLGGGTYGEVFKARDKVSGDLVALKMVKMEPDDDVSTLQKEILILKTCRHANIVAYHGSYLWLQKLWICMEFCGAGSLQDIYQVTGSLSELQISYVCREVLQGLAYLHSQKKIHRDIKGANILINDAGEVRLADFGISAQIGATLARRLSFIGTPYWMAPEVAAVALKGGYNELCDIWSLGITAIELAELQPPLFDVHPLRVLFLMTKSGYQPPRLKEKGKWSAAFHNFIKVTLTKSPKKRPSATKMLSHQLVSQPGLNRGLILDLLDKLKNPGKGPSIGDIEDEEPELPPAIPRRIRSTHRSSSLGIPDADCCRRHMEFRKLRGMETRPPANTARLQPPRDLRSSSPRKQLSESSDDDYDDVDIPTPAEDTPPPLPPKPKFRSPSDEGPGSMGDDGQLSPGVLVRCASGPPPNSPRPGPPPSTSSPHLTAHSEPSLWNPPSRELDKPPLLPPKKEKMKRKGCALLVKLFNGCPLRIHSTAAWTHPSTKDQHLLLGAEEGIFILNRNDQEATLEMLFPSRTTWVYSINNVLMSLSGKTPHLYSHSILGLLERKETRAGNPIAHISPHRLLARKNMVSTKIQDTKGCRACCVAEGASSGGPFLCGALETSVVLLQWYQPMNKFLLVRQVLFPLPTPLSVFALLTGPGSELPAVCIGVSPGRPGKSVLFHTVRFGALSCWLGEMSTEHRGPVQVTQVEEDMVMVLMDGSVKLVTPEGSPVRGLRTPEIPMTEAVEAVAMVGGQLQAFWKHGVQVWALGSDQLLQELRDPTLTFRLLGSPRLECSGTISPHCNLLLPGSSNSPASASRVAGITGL
pIC50: −log10 of the molar value.
property: pIC50

compound string: Cn1ccc2c(-c3ccc(Nc4ccc5c(n4)OC[C@H]4CNCCN54)c4c3CNC4=O)ccnc21
recorded value: 8.52

compound string: CN(C)Cc1cc(Nc2ncc(-c3cnc4cc(F)ccn34)c3c2C(=O)NC3)ccc1N1CCOCC1
recorded value: 7.74

compound string: CCN1CCN2c3ccc(Nc4ccc(-c5ccnc6c5ccn6C)c5c4C(=O)NC5)nc3OC[C@H]2C1
recorded value: 8.10

----------
test: Pharmacokinetic evaluation in mice; type: in vivo, female Balb/c mice; conditions: female, Balb/c, mouse, plasma, IV 2 mg/kg
property: clearance (mL/min/kg)

molecule: O=C1NCc2c(-c3cnc4cc(F)ccn34)ccc(Nc3ccc4c(n3)OC[C@H]3COCCN43)c21 [Trifluoroacetate of compound 9]
property: clearance
recorded value: 36

----------
experiment: Pharmacokinetic evaluation in mice; assay type: in vivo, female Balb/c mice; conditions: female, Balb/c, mouse, plasma, IV 2 mg/kg

compound: O=C1NCc2c(-c3cnc4cc(F)ccn34)ccc(Nc3ccc4c(n3)OC[C@H]3COCCN43)c21 [Trifluoroacetate of compound 9]
half-life: 18 min

----------
test: Permeability evaluation in MDR1-MDCK II cells; type: in vitro ADME; conditions: dog, pH 7.4, 2.00 μM, 150 minutes
property: Papp B→A at 150 min, 2 μM (×10⁻⁶ cm/s)

compound string: O=C1NCc2c(-c3cnc4cc(F)ccn34)ccc(Nc3ccc4c(n3)OC[C@@H]3COCCN43)c21
unit info: ×10⁻⁶ cm/s
recorded value: 14.2

----------
test: Pharmacokinetic evaluation in mice; type: in vivo, female Balb/c mice; details: female, Balb/c, mouse, plasma, PO 75 mg/kg vs IV 2 mg/kg, calculated using AUC0-last

compound: O=C1NCc2c(-c3cnc4cc(F)ccn34)ccc(Nc3ccc4c(n3)OC[C@H]3COCCN43)c21 [Trifluoroacetate of compound 9]
bioavailability: 148%

----------
target: UniProt:Q8IVH8
Sequence (Q8IVH8 whole entry): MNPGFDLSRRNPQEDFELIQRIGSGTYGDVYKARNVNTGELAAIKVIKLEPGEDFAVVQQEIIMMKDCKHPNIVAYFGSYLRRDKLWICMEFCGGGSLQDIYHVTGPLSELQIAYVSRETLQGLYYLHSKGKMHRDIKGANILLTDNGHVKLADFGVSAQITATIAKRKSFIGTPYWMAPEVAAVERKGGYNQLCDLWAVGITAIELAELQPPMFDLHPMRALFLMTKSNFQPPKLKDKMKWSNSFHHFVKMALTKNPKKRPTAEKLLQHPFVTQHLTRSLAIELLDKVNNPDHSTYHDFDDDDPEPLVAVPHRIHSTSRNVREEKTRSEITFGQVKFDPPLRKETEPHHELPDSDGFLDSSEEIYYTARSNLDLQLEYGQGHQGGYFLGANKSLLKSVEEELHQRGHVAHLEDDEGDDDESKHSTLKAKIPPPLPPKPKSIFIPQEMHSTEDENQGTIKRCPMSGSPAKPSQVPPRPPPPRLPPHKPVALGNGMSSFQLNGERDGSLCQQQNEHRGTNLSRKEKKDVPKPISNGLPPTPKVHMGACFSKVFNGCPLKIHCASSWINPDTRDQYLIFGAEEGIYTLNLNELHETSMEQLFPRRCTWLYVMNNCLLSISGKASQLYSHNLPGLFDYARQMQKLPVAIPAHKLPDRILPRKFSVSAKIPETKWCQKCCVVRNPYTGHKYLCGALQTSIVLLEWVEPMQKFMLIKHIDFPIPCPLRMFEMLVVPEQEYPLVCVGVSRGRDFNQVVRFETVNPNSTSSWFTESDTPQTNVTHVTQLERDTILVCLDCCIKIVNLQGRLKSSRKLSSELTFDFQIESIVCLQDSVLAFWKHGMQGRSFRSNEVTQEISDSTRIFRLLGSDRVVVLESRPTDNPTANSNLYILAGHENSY
pIC50: −log10 of the molar value.
Listed here: items and their measured pIC50.
property: pIC50

molecule: Cn1ccc2c(-c3ncc(Nc4ccc5c(n4)OC[C@@H]4COCCN54)c4c3CNC4=O)ccnc21
recorded value: 6.23
//
molecule: CN1Cc2nc(Nc3ccc(-c4cnc5cc(F)ccn45)c4c3C(=O)NC4)ccc2N2CCOCC2C1 (stereo not drawn) [Trifluoroacetate of compound 16]
recorded value: 6.56
//
molecule: Cn1ccc2c(-c3ncc(Nc4ccc5c(n4)OC[C@H]4COCCN54)c4c3CNC4=O)ccnc21 [Trifluoroacetate of compound 20]
recorded value: 6.70
